Test system: non-small cell lung carcinoma cell strain HCC827
Assay: In-vitro tumor cell proliferation inhibition, MTT
Assay type: cell-based, human
Conditions: 72 hours
Experimental: The object of this assay was to test the inventive compounds for the inhibitory activity of in-vitro tumor cell proliferation. The MTT (tetreamethyl-azo-zole-salt) colorimetric method was used in this assay. All of the above-mentioned non-small cell lung carcinoma cell strains and the breast carcinoma cell strain BT 474 were cultured with a RPMI-1640 complete culture medium containing 10% fetal bovine serum, 100 U/ml penicillin and 100 μg/ml streptomycin under 5% CO2 and at 37° C. […]
experimental_readout: IC50 (nM)

Here's what some known entries look like.
CN1CCN(c2ccc(Nc3ncc4nc(Nc5cccc(Cl)c5)n(C5CCCC5)c4n3)cc2)CC1 [Compounds 8-52] :: 0.3
CC(C)n1c(Nc2ccc(OCc3cccc(F)c3)c(Cl)c2)nc2cnc(Nc3ccc(N4CCN(C)CC4)cc3)nc21 [Compounds 8-19] :: 912

P. C#Cc1cccc(Nc2nc3cnc(Nc4ccc(N5CCN(C)CC5)cc4)nc3n2C(C)C)c1 [Compounds 8-12]
Q. CN1CCN(c2ccc(Nc3ncc4nc(Nc5cccc(F)c5)n(C5CCCC5)c4n3)cc2)CC1 [Compounds 8-49]
IC50 comparison. Which is larger, P or Q ? Identify your pick by its label.
Q
(Q: 0.3 nM, P: 0.2 nM)

---

target: BTK (Homo sapiens (Human)); test: Kinase inhibitory activity, isotopic labeling (γ-33P-ATP); assay type: biochemical; conditions: compound at 10 μM
Sequence (Q06187 whole entry): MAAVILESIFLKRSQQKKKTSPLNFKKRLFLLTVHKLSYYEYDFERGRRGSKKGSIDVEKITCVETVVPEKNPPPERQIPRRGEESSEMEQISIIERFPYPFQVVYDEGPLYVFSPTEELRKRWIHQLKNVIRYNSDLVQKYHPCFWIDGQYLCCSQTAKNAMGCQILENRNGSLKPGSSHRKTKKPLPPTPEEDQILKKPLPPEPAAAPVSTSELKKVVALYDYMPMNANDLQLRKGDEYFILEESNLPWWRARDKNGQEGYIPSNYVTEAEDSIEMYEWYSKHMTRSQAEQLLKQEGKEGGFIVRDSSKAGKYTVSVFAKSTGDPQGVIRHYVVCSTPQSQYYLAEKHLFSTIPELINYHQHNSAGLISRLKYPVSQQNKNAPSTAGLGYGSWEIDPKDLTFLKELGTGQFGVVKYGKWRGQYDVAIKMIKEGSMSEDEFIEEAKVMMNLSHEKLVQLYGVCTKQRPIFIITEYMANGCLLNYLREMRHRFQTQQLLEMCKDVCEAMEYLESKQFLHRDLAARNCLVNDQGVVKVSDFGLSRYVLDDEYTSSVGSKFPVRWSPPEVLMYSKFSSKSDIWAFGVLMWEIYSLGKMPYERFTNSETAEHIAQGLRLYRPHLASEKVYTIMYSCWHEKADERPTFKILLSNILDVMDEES
experimental_readout: The kinase activity inhibitory rate (%) by the tested compounds at 10 μM BTK

CC(C)n1c(Nc2ccc(C(=O)Nc3cccc(F)c3)cc2)nc2cnc(Nc3ccc(N4CCN(C)CC4)cc3)nc21 :: 63
C=CC(=O)Nc1cccc(Nc2ncc3nc(Nc4ccccc4)n(C(C)C)c3n2)c1 :: 93
CN1CCN(c2ccc(Nc3ncc4nc(Nc5ccccc5)n(C)c4n3)cc2)CC1 :: 14

I. CN1CCN(c2ccc(Nc3ncc4nc(Nc5ccccc5)n(C5CCCC5)c4n3)cc2)CC1
II. COc1ccc(Nc2nc3cnc(Nc4ccc(N5CCN(C)CC5)cc4)nc3n2C(C)C)cc1
The kinase activity inhibitory rate (%) by the tested compounds at 10 μM BTK comparison. Which is larger, I or II ? Identify your pick by its label.
I

---

system: non-small cell lung carcinoma cell strain H1975 (EGFR L858R/T790M mutation); experiment: In-vitro tumor cell proliferation inhibition, MTT; format: cell-based, human; details: 72 hours
experimental_readout: IC50 (µM)
Write the answer as a number in µM, unit excluded.

Here's what some known entries look like.
CC(C)n1c(Nc2ccc(NC(=O)Nc3ccc(F)c(Cl)c3)cc2)nc2cnc(Nc3ccc(N4CCN(C)CC4)cc3)nc21 :: 7.31
CN1CCN(c2ccc(Nc3ncc4nc(Nc5cc(Cl)cc(Cl)c5)n(C5CCCC5)c4n3)cc2)CC1 :: 1.7

Let's switch to this molecule now.
Form: Entry = CC(C)n1c(Nc2ccccc2)nc2cnc(Nc3ccc(N4CCN(C)CC4)cc3)nc21 | System = non-small cell lung carcinoma cell strain H1975 (EGFR L858R/T790M mutation) | IC50 = ____
2

---

tested on: squamous cell carcinoma cell strain A431; test: In-vitro tumor cell proliferation inhibition, MTT; assay type: cell-based, human; conditions: Homo sapiens, A-431, 72 hours
experimental_readout: IC50 (µM)
Write the answer as a number in µM, unit excluded.

Reported IC50 for CC(C)n1c(Nc2ccc(F)c(Cl)c2)nc2cnc(Nc3ccc(C(=O)NN4CCN(C)CC4)cc3F)nc21 : what is it?
9.29

---

target: VEGFR2 (Homo sapiens (Human)); experiment: Kinase inhibitory activity, isotopic labeling (γ-33P-ATP); type: biochemical; conditions: ATP 90 μM (Km)
Sequence (P35968 20-1356): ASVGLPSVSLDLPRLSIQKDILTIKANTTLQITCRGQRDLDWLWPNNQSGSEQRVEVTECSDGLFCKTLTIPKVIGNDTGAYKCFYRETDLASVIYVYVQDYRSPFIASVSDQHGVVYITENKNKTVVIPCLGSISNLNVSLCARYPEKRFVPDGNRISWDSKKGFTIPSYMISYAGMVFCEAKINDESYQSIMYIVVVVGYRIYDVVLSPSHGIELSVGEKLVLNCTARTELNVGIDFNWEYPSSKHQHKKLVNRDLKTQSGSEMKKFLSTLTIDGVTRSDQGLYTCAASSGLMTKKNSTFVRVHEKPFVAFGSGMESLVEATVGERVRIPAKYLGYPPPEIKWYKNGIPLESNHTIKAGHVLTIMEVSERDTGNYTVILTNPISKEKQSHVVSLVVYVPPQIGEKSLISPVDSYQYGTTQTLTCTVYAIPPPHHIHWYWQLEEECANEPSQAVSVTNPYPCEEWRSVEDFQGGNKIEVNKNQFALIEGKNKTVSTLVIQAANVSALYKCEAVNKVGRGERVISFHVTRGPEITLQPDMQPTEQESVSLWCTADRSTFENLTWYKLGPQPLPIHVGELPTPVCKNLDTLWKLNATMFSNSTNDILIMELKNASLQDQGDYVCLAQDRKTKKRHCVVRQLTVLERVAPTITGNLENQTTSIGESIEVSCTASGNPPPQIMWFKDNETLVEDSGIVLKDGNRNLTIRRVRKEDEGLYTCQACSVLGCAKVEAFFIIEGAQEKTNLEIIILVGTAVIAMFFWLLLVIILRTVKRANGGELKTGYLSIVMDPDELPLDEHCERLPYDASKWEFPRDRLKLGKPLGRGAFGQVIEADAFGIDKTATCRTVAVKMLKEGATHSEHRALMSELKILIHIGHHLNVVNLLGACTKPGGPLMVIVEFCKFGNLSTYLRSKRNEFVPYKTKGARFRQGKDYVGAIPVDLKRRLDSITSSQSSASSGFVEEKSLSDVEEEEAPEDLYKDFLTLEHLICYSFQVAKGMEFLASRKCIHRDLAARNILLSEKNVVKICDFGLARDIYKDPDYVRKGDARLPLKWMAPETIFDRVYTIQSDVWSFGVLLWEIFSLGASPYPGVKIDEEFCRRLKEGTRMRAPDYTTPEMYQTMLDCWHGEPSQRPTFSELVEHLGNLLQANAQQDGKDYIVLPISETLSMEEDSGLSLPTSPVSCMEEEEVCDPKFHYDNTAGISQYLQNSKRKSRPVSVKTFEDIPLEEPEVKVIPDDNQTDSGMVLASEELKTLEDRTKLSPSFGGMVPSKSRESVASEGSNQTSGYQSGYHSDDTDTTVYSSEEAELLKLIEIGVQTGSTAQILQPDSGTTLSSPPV
pIC50: −log10 of the molar value.
experimental_readout: pIC50

CC(C)n1c(Nc2ccc(F)c(Cl)c2)nc2cnc(Nc3ccc(N4CCN(C)CC4)cc3)nc21 [Compounds 8-13] :: < 6.00

Reported pIC50 for CC(C)n1c(Nc2ccc(OCc3cccc(F)c3)c(Cl)c2)nc2cnc(Nc3ccc(N4CCN(C)CC4)cc3)nc21 [Compounds 8-19] : what is it?
< 6.00

Reported pIC50 for CC(C)n1c(Nc2ccc(Br)cc2)nc2cnc(Nc3ccc(N4CCN(C)CC4)cc3)nc21 [Compounds 8-15] : what is it?
8.40

---

system: chronic granulocytic leukemia cell strain K562; experiment: In-vitro tumor cell proliferation inhibition, MTT; format: cell-based, human; settings: 72 hours
experimental_readout: IC50 (µM)

CCN1CCN(Cc2ccc(Nc3ncc4nc(Nc5ccccc5)n(C5CCCC5)c4n3)cc2)CC1 :: 0.111
CC(C)n1c(Nc2cccc(C(F)(F)F)c2)nc2cnc(Nc3ccc(N4CCN(C)CC4)cc3)nc21 :: 2.52
CC(C)n1c(Nc2ccc(C(=O)Nc3cccc(F)c3)cc2)nc2cnc(Nc3ccc(N4CCN(C)CC4)cc3)nc21 :: 0.921

I. CN1CCN(c2ccc(Nc3ncc4nc(Nc5cccc(Cl)c5)n(C5CCCC5)c4n3)cc2)CC1
II. CN1CCN(c2ccc(Nc3ncc4nc(NCc5ccccc5)n(C5CCCC5)c4n3)cc2)CC1
III. CC(C)n1c(Nc2ccc(OCc3cccc(F)c3)c(Cl)c2)nc2cnc(Nc3ccc(N4CCOCC4)cc3)nc21
List the 3 entries from lowest IC50 to highest IC50 value. Quick reminder: the answer is the labels in the order asked.
I, II, III
(I: 0.148 µM, II: 0.218 µM, III: 0.922 µM)

---

test system: colon cancer cell strain SW480; experiment: In-vitro tumor cell proliferation inhibition, MTT; type: cell-based, human; details: 72 hours
experimental_readout: IC50 (µM)

Here's what some known entries look like.
Cc1cccc(Nc2nc3cnc(Nc4ccc(N5CCN(C)CC5)cc4)nc3n2C2CCCC2)c1 :: 4.21
CC(C)n1c(Nc2cccc(C(F)(F)F)c2)nc2cnc(Nc3ccc(N4CCN(C)CC4)cc3)nc21 :: 6.48
CC(C)n1c(Nc2ccccc2)nc2cnc(Nc3ccc(C(=O)NN4CCN(C)CC4)cc3)nc21 :: 5.73

a. CN1CCN(c2ccc(Nc3ncc4nc(Nc5cccc(Cl)c5)n(C5CCCC5)c4n3)cc2)CC1
b. CN1CCN(c2ccc(Nc3ncc4nc(Nc5cc(Cl)cc(Cl)c5)n(C5CCCC5)c4n3)cc2)CC1
IC50 comparison. Which is larger, a or b ? Identify your pick by its label.
b
(b: 6.73 µM, a: 4.62 µM)

---

Listed next: entries and their corresponding IC50.
biological target: EGFR L858R/T790M double mutant type (Homo sapiens (Human), UniProt P00533, L858R/T790M); experiment: Kinase inhibitory activity, isotopic labeling (γ-33P-ATP); format: biochemical; conditions: ATP 45 μM (Km)
Sequence (P00533 25-1210 T790M/L858R): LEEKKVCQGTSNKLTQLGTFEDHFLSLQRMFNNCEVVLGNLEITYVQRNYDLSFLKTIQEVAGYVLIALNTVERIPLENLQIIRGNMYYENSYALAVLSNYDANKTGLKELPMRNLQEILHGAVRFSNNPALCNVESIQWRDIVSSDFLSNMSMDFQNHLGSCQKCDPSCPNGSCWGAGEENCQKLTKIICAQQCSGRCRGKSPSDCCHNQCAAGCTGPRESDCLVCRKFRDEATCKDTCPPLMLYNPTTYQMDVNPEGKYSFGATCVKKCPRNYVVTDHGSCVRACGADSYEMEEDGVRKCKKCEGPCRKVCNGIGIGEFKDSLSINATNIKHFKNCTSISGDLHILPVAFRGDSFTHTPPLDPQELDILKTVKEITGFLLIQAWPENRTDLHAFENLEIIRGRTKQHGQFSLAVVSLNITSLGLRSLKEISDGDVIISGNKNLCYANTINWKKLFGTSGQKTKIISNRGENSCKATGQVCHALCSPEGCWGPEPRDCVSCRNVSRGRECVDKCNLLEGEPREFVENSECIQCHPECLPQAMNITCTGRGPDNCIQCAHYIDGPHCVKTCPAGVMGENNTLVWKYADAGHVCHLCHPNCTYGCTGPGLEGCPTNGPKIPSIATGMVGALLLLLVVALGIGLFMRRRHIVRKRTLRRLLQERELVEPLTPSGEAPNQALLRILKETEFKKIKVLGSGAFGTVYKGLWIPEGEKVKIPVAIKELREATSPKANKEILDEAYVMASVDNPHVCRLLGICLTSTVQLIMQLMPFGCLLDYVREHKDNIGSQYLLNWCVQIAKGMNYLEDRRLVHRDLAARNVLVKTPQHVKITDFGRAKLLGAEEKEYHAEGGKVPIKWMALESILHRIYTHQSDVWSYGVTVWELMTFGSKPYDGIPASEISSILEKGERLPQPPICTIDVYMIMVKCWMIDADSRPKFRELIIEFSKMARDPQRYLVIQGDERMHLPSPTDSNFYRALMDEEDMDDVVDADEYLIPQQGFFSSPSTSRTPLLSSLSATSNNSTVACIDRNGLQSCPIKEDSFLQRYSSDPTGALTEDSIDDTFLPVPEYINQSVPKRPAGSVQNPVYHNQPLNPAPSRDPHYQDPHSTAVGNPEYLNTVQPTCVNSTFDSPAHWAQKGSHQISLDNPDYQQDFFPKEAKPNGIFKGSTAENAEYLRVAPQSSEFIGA
Write the answer as a number in µM, unit excluded.

Here's what some known entries look like.
C=CC(=O)Nc1cccc(Nc2ncc3nc(Nc4ccccc4)n(C(C)C)c3n2)c1 [Compounds 8-38] :: 0.037
CC(C)n1c(Nc2ccc(F)c(Cl)c2)nc2cnc(Nc3ccc(N4CCN(C)CC4)cc3)nc21 [Compounds 8-13] :: 0.009
CC(C)n1c(Nc2ccc(Br)cc2)nc2cnc(Nc3ccc(N4CCN(C)CC4)cc3)nc21 [Compounds 8-15] :: 0.015

Let's switch to this compound now.
Reported IC50 for COc1cccc(Nc2nc3cnc(Nc4ccc(N5CCN(C)CC5)cc4)nc3n2C(C)C)c1 [Compounds 8-17] : what is it?
0.004

---

target: FLT3 (Homo sapiens (Human), UniProt P36888); test: Kinase inhibitory activity, isotopic labeling (γ-33P-ATP); format: biochemical; conditions: compound at 10 μM
Sequence (P36888 27-993): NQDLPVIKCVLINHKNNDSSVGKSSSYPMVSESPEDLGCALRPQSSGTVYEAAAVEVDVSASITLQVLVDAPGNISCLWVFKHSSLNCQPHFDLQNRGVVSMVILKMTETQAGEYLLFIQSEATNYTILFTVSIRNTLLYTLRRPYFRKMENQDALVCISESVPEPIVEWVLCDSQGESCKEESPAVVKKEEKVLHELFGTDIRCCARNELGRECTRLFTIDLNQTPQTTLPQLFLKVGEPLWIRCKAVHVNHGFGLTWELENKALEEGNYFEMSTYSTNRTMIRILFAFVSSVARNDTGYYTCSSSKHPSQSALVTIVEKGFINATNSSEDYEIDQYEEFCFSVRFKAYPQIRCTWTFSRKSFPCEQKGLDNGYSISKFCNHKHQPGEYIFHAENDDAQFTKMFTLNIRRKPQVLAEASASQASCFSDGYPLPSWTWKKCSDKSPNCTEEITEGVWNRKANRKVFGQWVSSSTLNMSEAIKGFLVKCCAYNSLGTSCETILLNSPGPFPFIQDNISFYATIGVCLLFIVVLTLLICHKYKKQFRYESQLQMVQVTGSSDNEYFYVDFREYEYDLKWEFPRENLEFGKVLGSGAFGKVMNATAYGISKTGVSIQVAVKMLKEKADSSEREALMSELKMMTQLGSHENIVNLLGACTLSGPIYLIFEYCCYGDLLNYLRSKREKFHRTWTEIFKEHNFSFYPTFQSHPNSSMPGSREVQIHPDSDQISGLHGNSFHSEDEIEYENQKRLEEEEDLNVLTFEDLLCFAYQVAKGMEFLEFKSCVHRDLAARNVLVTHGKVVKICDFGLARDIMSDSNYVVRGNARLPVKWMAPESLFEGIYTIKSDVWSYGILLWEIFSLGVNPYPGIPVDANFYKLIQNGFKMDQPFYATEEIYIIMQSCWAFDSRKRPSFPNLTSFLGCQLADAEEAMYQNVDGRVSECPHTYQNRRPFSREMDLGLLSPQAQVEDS
experimental_readout: The kinase activity inhibitory rate (%) by the tested compounds at 10 μM FLT3
Write the answer as a number in %, unit excluded.

Here's what some known entries look like.
CC(C)n1c(Nc2ccccc2)nc2cnc(Nc3ccc(N4CCN(C)CC4)cc3)nc21 :: 87
CC(C)n1c(Nc2cccnc2)nc2cnc(Nc3ccc(N4CCN(C)CC4)cc3)nc21 :: 99
CC(C)n1c(Nc2ccc(Br)cc2)nc2cnc(Nc3ccc(N4CCN(C)CC4)cc3)nc21 :: 90

Reported The kinase activity inhibitory rate (%) by the tested compounds at 10 μM FLT3 for CN1CCN(c2ccc(Nc3ncc4nc(Nc5ccccc5)n(C5CC5)c4n3)cc2)CC1 : what is it?
68

Reported The kinase activity inhibitory rate (%) by the tested compounds at 10 μM FLT3 for CC(C)n1c(Nc2ccc(C(=O)Nc3cccc(F)c3)cc2)nc2cnc(Nc3ccc(N4CCN(C)CC4)cc3)nc21 : what is it?
87

Reported The kinase activity inhibitory rate (%) by the tested compounds at 10 μM FLT3 for CC(C)n1c(NC2CCCCC2)nc2cnc(Nc3ccc(N4CCN(C)CC4)cc3)nc21 : what is it?
43

Reported The kinase activity inhibitory rate (%) by the tested compounds at 10 μM FLT3 for CN1CCN(c2ccc(Nc3ncc4nc(Nc5ccccc5)n(C)c4n3)cc2)CC1 : what is it?
75
